Biological target: human ether-à-go-go-related gene (hERG) potassium channel (human, UniProt Q12809);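 further: peak tail current of the secondary pulse compared with the same well before compound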
Sequence (Q12809 whole entry, looked up): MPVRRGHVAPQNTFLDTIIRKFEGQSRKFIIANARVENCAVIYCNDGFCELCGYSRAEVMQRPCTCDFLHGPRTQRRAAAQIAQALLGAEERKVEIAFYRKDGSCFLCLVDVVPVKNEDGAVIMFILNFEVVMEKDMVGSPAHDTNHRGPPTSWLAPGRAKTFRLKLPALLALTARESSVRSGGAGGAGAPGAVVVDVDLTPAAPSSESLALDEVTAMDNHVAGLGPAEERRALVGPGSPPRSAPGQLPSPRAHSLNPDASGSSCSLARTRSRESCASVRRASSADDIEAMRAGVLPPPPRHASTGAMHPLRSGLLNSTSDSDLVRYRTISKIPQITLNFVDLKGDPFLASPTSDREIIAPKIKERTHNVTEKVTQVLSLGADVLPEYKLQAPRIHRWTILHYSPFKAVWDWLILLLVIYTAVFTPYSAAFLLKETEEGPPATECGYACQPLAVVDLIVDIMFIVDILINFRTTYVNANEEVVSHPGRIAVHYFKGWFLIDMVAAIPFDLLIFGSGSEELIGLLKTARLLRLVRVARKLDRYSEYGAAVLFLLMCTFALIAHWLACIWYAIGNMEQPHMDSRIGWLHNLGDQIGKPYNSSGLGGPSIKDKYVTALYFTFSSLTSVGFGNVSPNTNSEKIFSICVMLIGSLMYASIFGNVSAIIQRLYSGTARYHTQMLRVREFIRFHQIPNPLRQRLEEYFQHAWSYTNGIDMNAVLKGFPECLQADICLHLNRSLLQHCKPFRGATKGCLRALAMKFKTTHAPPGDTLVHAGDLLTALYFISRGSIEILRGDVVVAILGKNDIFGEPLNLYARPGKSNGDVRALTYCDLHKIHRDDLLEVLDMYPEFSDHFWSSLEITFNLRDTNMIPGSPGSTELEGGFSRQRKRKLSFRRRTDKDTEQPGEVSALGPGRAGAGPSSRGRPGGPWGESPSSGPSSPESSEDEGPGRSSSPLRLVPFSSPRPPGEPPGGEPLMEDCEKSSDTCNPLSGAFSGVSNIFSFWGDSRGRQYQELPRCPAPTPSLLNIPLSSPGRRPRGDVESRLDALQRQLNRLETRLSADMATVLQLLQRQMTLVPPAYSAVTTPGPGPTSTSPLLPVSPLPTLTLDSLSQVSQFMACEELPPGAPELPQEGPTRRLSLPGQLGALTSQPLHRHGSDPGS
Test: primary screen, population patch clamp on CHO cells stably expressing hERG; higher = less effect of the substance
Out of some 310,000 compounds screened, about 14,000 (4.5%) showed an effect of 50% or more. The effect is printed as a negative number. Only a selection was taken, and strong results are over-represented in it overall.
Provide the reported hERG current change (%, negative = inhibition) at 10uM of each item.
Express it in %; write the number only.

Can you look up the measured hERG current change (%, negative = inhibition) at 10uM of CC(=O)Nc1ccc(NC(=O)C(C)OC(=O)C(C)SCC(=O)Nc2ccc(F)cc2)cc1 (centres unmarked) for me? 12

Can you look up the measured hERG current change (%, negative = inhibition) at 10uM of O=C(N/N=C\c1ccc([N+](=O)[O-])o1)C1COc2ccccc2O1 (centres unmarked) for me? -67.4

Can you look up the measured hERG current change (%, negative = inhibition) at 10uM of O=c1oc2ccccc2cc1-c1cn2ccccc2n1 for me? 11.9

Can you look up the measured hERG current change (%, negative = inhibition) at 10uM of CC(C)(C)c1ccc2c(c1)OC(C(=O)N/N=C/c1ccc([N+](=O)[O-])o1)CO2 (centres unmarked) for me? -39.2

Can you look up the measured hERG current change (%, negative = inhibition) at 10uM of C/C(=N/NC(=O)CNC(=O)C1COc2ccccc2O1)c1ccc2c(c1)OCCO2 (centres unmarked) for me? -1.69

----------
Target: human ether-à-go-go-related gene (hERG) potassium channel (human, UniProt Q12809);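 further: peak tail current of the secondary pulse compared with the same well before compound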
Experiment: primary screen, population patch clamp on CHO cells stably expressing hERG; higher = less effect of the substance
Out of some 310,000 compounds screened, about 14,000 (4.5%) showed an effect of 50% or more. The effect is printed as a negative number. Many of the other results were omitted from the sample, so strong results are more common in it than they were.
Provide the reported hERG current change (%, negative = inhibition) at 10uM of each item.
Express it in %; write the number only.

GET /values?readout=hERG current change (%, negative = inhibition) at 10uM&system=human ether-à-go-go-related gene (hERG) potassium channel (human, UniProt Q12809)&item= NNC(=S)NC1CCS(=O)(=O)C1 (stereo not shown) 22.1

GET /values?readout=hERG current change (%, negative = inhibition) at 10uM&system=human ether-à-go-go-related gene (hERG) potassium channel (human, UniProt Q12809)&item= CC(C)(C)c1ccc(C(=O)NNC(=O)c2ccncc2)cc1 15.5

GET /values?readout=hERG current change (%, negative = inhibition) at 10uM&system=human ether-à-go-go-related gene (hERG) potassium channel (human, UniProt Q12809)&item= O=C(N/N=C/c1cn[nH]c1-c1ccc(F)cc1)c1ccncc1 6.55

GET /values?readout=hERG current change (%, negative = inhibition) at 10uM&system=human ether-à-go-go-related gene (hERG) potassium channel (human, UniProt Q12809)&item= COc1cccc(Nc2ncccc2C(=O)O)c1 9.1

GET /values?readout=hERG current change (%, negative = inhibition) at 10uM&system=human ether-à-go-go-related gene (hERG) potassium channel (human, UniProt Q12809)&item= Cc1cc(C(=O)Nc2ccc3c(c2)OCCO3)c(C)o1 4.25

GET /values?readout=hERG current change (%, negative = inhibition) at 10uM&system=human ether-à-go-go-related gene (hERG) potassium channel (human, UniProt Q12809)&item= O=C(Nc1ccc(C(=O)N2CCC(O)(c3ccc(Cl)c(C(F)(F)F)c3)CC2)cc1)c1ccc(Br)o1 8.21

GET /values?readout=hERG current change (%, negative = inhibition) at 10uM&system=human ether-à-go-go-related gene (hERG) potassium channel (human, UniProt Q12809)&item= O=C(N/N=C\c1ccc(COc2ccc([N+](=O)[O-])cc2)o1)c1cccc(Cl)c1 4.17

GET /values?readout=hERG current change (%, negative = inhibition) at 10uM&system=human ether-à-go-go-related gene (hERG) potassium channel (human, UniProt Q12809)&item= Cc1cc(C(=O)COC(=O)C2=NNC(=O)CC2)c(C)n1-c1ccc(OC(F)F)cc1 -48.4

GET /values?readout=hERG current change (%, negative = inhibition) at 10uM&system=human ether-à-go-go-related gene (hERG) potassium channel (human, UniProt Q12809)&item= Cc1cc(C(=O)C(C)OC(=O)C2=NNC(=O)CC2)c(C)n1-c1ccc(OC(F)F)cc1 (stereo not shown) -73.3

GET /values?readout=hERG current change (%, negative = inhibition) at 10uM&system=human ether-à-go-go-related gene (hERG) potassium channel (human, UniProt Q12809)&item= O=C(CSc1cc([N+](=O)[O-])cc(S(=O)(=O)Cc2ccccc2)c1)NC1CC1 -9.88

GET /values?readout=hERG current change (%, negative = inhibition) at 10uM&system=human ether-à-go-go-related gene (hERG) potassium channel (human, UniProt Q12809)&item= Cc1cc(C(=O)N/N=C\c2ccc(COc3ccc([N+](=O)[O-])cc3)o2)ccc1[N+](=O)[O-] -7.77

GET /values?readout=hERG current change (%, negative = inhibition) at 10uM&system=human ether-à-go-go-related gene (hERG) potassium channel (human, UniProt Q12809)&item= COC(=O)NNC(=O)C1CCC(C)CC1 (stereo not shown) -27.2

GET /values?readout=hERG current change (%, negative = inhibition) at 10uM&system=human ether-à-go-go-related gene (hERG) potassium channel (human, UniProt Q12809)&item= COc1ccc(/C=N/NC(=O)c2cccc([N+](=O)[O-])c2)cc1OC 5.28

GET /values?readout=hERG current change (%, negative = inhibition) at 10uM&system=human ether-à-go-go-related gene (hERG) potassium channel (human, UniProt Q12809)&item= O=C(N/N=C/c1cccnc1)c1ccc([N+](=O)[O-])cc1 -7.74

GET /values?readout=hERG current change (%, negative = inhibition) at 10uM&system=human ether-à-go-go-related gene (hERG) potassium channel (human, UniProt Q12809)&item= Cc1ccc(-n2c(C)cc(C(=O)COC(=O)C3=NNC(=O)CC3)c2C)cc1 -42.3

GET /values?readout=hERG current change (%, negative = inhibition) at 10uM&system=human ether-à-go-go-related gene (hERG) potassium channel (human, UniProt Q12809)&item= COC(=O)C1=C(C(=O)OC)[C@@H]2N(Cc3ccccc3)c3ccccc3[C@@]23C[C@@H](C(=O)OC)N(C(=O)NC2CCCCC2)C3=N1 -12.1

GET /values?readout=hERG current change (%, negative = inhibition) at 10uM&system=human ether-à-go-go-related gene (hERG) potassium channel (human, UniProt Q12809)&item= Cc1nnc(SCC2=C(C(=O)O)N3C(=O)C(NC(=O)Cn4ncc(Cl)c4C)C3SC2)s1 (stereo not shown) 26.9

GET /values?readout=hERG current change (%, negative = inhibition) at 10uM&system=human ether-à-go-go-related gene (hERG) potassium channel (human, UniProt Q12809)&item= O=C(N/N=C\c1cn[nH]c1-c1ccccc1)c1cccnc1 -1.27

GET /values?readout=hERG current change (%, negative = inhibition) at 10uM&system=human ether-à-go-go-related gene (hERG) potassium channel (human, UniProt Q12809)&item= O=P(Nc1c(Cl)cccc1Cl)(c1ccccc1)c1nc2c(s1)CCCC2 (stereo not shown) 10

----------
Target: human ether-à-go-go-related gene (hERG) potassium channel (human, UniProt Q12809);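 further: peak tail current of the secondary pulse compared with the same well before compound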
Assay: primary screen, population patch clamp on CHO cells stably expressing hERG; higher = less effect of the substance
Among all 310,000 compounds or so, about 14,000 (4.5%) showed an effect of 50% or more. The effect is printed as a negative number. The entries come from a sample that favours strong results as a whole.
observation_type: hERG current change (%, negative = inhibition) at 10uM
Please make sure the unit comes right after the number.

Can you look up the measured hERG current change (%, negative = inhibition) at 10uM of O=C(Nc1cccc2ncccc12)c1ccc(-c2ccc(Cl)cc2Cl)o1 for me? -7.06%

Can you look up the measured hERG current change (%, negative = inhibition) at 10uM of CC(=O)Nc1ccc2c(c1)ncn2-c1ccccc1 for me? 3.72%

Can you look up the measured hERG current change (%, negative = inhibition) at 10uM of COC(=O)c1[nH]c2ccc(Br)cc2c1NC(=O)CN1CCCCC1CCO (stereo not shown) for me? -2.6%

Can you look up the measured hERG current change (%, negative = inhibition) at 10uM of COc1ccccc1N1CCN(S(=O)(=O)c2ccccc2F)CC1 for me? -23.3%

Can you look up the measured hERG current change (%, negative = inhibition) at 10uM of Cc1onc(-c2ccccc2Cl)c1C(=O)O/N=C(\N)c1ccc([N+](=O)[O-])o1 for me? -43.6%

Can you look up the measured hERG current change (%, negative = inhibition) at 10uM of COC(=O)C(=NNc1c(C)n(C)n(-c2ccccc2)c1=O)C(=O)OC for me? 9.93%

Can you look up the measured hERG current change (%, negative = inhibition) at 10uM of COC(=O)c1[nH]c2ccc(Br)cc2c1NC(=O)C(C)N1CCN(C2CCCCC2)CC1 (stereo not shown) for me? -78.2%

Can you look up the measured hERG current change (%, negative = inhibition) at 10uM of COc1ccc2nc(C)cc(N3CCN(S(=O)(=O)c4ccccc4F)CC3)c2c1 for me? -75.9%

Can you look up the measured hERG current change (%, negative = inhibition) at 10uM of CCN(c1cccc(C)c1)S(=O)(=O)c1ccc2c(c1)NC(=O)CS2 for me? -7.28%

Can you look up the measured hERG current change (%, negative = inhibition) at 10uM of C/C(=N\OC(=O)c1c(-c2ccccc2Cl)noc1C)c1nccs1 for me? -2.44%
